Source: patent US9029405B2

# EC50 annotations
Target: S1P1 (Homo sapiens, UniProt P21453)
Experiment: S1P1 internalization assay in S1P1-U2OS cells (cell imaging)
Conditions: U2OS cells expressing S1P1-EGFP, 384-well format
Source text: Cellular Functional Assays: Internalization of Sphinqosine-1-phosphate Receptor 1 (S1P1) in a Human Cell Line (U2OS) in a 384-Well Format Using a Cell Imaging Analysis. […] S1P1 Receptor desensitization induced the internalization of the membrane-localized S1P-EGFP fusion protein to endosomes, which can be monitored by cell imaging analysis. […]
Sequence (P21453 whole entry): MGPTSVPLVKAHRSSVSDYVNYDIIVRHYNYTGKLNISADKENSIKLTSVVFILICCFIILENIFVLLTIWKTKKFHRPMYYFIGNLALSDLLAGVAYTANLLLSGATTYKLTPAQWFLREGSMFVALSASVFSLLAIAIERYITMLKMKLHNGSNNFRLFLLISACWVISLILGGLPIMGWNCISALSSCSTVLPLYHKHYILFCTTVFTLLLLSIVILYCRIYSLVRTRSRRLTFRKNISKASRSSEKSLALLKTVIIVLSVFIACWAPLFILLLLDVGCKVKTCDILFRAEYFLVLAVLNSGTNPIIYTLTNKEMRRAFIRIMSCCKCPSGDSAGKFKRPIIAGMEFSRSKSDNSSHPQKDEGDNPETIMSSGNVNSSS
Where a name gives a salt, the structure may show the parent alone.
Recorded Endpoint: EC50 (nM)

{"Molecule": "Cc1ccccc1-c1ccc(-c2nc(-c3cccc(CN(C)C(C(=O)O)C(C)C)c3)no2)cc1C(F)(F)F (stereo not shown)", "Recorded Endpoint": "EC50", "U": "nM", "Meas Value": 47.9}
{"Molecule": "Cc1ccccc1-c1ccc(-c2nc(-c3ccc(C(C)N(C)[C@@H](C)C(=O)O)cc3)no2)cc1C(F)(F)F (stereo partly shown)", "Recorded Endpoint": "EC50", "U": "nM", "Meas Value": 20.9}
{"Molecule": "Cc1ccccc1-c1ccc(-c2nc(-c3ccc([C@H](C)N[C@H](C)C(=O)O)cc3)no2)cc1C(F)(F)F (racemic) [Example 27, hydrochloride salt]", "Recorded Endpoint": "EC50", "U": "nM", "Meas Value": 7.84}
{"Molecule": "Cc1ccccc1-c1ccc(-c2nc(-c3ccc([C@@H](C)N[C@@H](C)C(=O)O)cc3)no2)cc1C(F)(F)F [Example 19, hydrochloride salt]", "Recorded Endpoint": "EC50", "U": "nM", "Meas Value": 45.6}

====

# Ki annotations
Biological target: UniProt:P21453
Test: Receptor binding assay, [33P]sphingosine 1-phosphate competition, membranes of CHO cells expressing S1P1
Conditions: 384 well plate; read-out: S1P1 Binding Ki [M] (384 well plate)
Sequence (P21453 whole entry, species assumed): as the sequence (P21453 whole entry) above
Structures can show the parent of a compound that is named as a salt.

{"Compound": "Cc1ccccc1-c1ccc(-c2nc(-c3ccc(CN(C)[C@H](CO)C(=O)O)cc3)no2)cc1C(F)(F)F [Example 72]", "Ki, M": "3.94e-09"}
{"Compound": "Cc1ccccc1-c1ccc(-c2nc(-c3ccc([C@H](C)N[C@H](C)C(=O)O)cc3)no2)cc1C(F)(F)F (racemic) [Example 27, hydrochloride salt]", "Ki, M": "2.21e-09"}
{"Compound": "COCc1cc(-c2nc(-c3ccc(CN(C)C4(C(=O)O)CCCC4)cc3)no2)ccc1-c1ccccc1C [Example 53]", "Ki, M": "3.97e-09"}

====

Target: S1P1 (Homo sapiens, UniProt P21453)
Assay: Receptor binding assay, [33P]sphingosine 1-phosphate competition, membranes of CHO cells expressing S1P1
Conditions: 96 well plate; read-out: S1P1 Binding Ki [M] (96 well plate)
Where a name gives a salt, the structure may show the parent alone.
# Ki annotations
Recorded Endpoint: Ki (M)

{"Compound": "Cc1ccccc1-c1ccc(-c2nc(-c3ccc([C@@H](C)NCC(=O)O)cc3)no2)cc1C(F)(F)F [Example 22, hydrochloride salt]", "Target Or Test System": "S1P1 (Homo sapiens, UniProt P21453)", "Meas Value": "4.14e-10"}
{"Compound": "Cc1ccccc1-c1ccc(-c2nc(-c3ccc([C@@H](C)N)cc3)no2)cc1C(F)(F)F [Example M1]", "Target Or Test System": "S1P1 (Homo sapiens, UniProt P21453)", "Meas Value": "4.05e-10"}
{"Compound": "CNCc1cccc(-c2noc(-c3ccc(-c4ccccc4C)c(C(F)(F)F)c3)n2)c1 [Example M2]", "Target Or Test System": "S1P1 (Homo sapiens, UniProt P21453)", "Meas Value": "5.6e-10"}
{"Compound": "COCc1cc(-c2nc(-c3ccc(CN(C)C(C)(C)C(=O)O)c(F)c3)no2)ccc1-c1ccccc1C [Example 43, hydrochloride salt]", "Target Or Test System": "S1P1 (Homo sapiens, UniProt P21453)", "Meas Value": "6.3e-10"}
{"Compound": "COCc1cc(-c2nc(-c3ccc([C@@H](C)N(C)CC(=O)O)cc3)no2)ccc1-c1ccccc1C [Example 97, hydrochloride salt]", "Target Or Test System": "S1P1 (Homo sapiens, UniProt P21453)", "Meas Value": "7.8e-10"}

====

Target: S1P1 (Homo sapiens)
Assay: Receptor binding assay, [33P]sphingosine 1-phosphate competition, membranes of CHO cells expressing S1P1
Conditions: 384 well plate; read-out: S1P1 Binding Ki [M] (384 well plate)
Structures can show the parent of a compound that is named as a salt.
# Ki annotations

{"Molecule": "Cc1ccccc1-c1ccc(-c2nc(-c3cccc(CCN[C@@H](C)C(=O)O)c3)no2)cc1C(F)(F)F", "Ki, M": "1.01e-09"}
{"Molecule": "Cc1ccccc1-c1ccc(-c2nc(-c3cccc(C(C)N(C)[C@@H](C)C(=O)O)c3)no2)cc1C(F)(F)F (some centres unmarked) [Example 29, hydrochloride salt]", "Ki, M": "5.95e-10"}
{"Molecule": "Cc1cc(-c2nc(-c3ccc(CNC(C)(C)C(=O)O)c(F)c3)no2)ccc1-c1ccccc1C(F)(F)F [Example 48, hydrochloride salt]", "Ki, M": "4.68e-09"}
{"Molecule": "Cc1ccccc1-c1ccc(-c2nc(-c3ccc(C(C)N(C)CC(=O)O)cc3)no2)cc1C(F)(F)F (centres unmarked) [Example 40, hydrochloride salt]", "Ki, M": "2.17e-09"}
{"Molecule": "Cc1cc(-c2nc(-c3ccc([C@@H](C)N[C@H](C)C(=O)O)cc3)no2)ccc1-c1ccccc1C(F)(F)F [Example 6, hydrochloride salt]", "Ki, M": "2.18e-09"}

====

Target: S1P3 (Homo sapiens)
Sequence (Q99500 whole entry, species assumed): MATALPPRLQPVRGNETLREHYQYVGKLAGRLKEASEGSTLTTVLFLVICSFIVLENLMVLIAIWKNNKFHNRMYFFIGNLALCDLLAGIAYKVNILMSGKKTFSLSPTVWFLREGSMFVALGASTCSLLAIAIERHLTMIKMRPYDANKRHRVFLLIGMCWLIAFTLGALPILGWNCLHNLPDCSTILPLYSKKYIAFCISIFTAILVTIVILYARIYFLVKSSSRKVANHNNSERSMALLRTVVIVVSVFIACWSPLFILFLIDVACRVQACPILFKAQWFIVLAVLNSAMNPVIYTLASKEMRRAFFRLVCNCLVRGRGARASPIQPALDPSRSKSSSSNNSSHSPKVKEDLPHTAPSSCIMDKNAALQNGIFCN
Test: Receptor binding assay, [33P]sphingosine 1-phosphate competition, membranes of CHO cells expressing S1P3
Details: 384 well plate; read-out: S1P3 Binding Ki [M] (384 well plate)
Structures can show the parent of a compound that is named as a salt.

{"Molecule": "Cc1cc(-c2nc(-c3ccc([C@@H](C)N[C@H](C)C(=O)O)cc3)no2)ccc1-c1ccccc1C(F)F [Example 2, hydrochloride salt]", "Target Or Test System": "S1P3 (Homo sapiens)", "Ki": "> 2e-05 M"}
{"Molecule": "Cc1ccccc1-c1ccc(-c2nc(-c3ccc([C@H](C)N[C@@H](C)C(=O)O)cc3)no2)cc1C(F)(F)F (racemic) [Example 26, hydrochloride salt]", "Target Or Test System": "S1P3 (Homo sapiens)", "Ki": "1.65e-06 M"}
{"Molecule": "Cc1ccccc1-c1ccc(-c2nc(-c3cccc(C(C)NCC(=O)O)c3)no2)cc1C(F)(F)F (stereo not drawn) [Example 42, hydrochloride salt]", "Target Or Test System": "S1P3 (Homo sapiens)", "Ki": "1.06e-07 M"}
{"Molecule": "CC[C@H](NCc1ccc(-c2noc(-c3ccc(-c4ccccc4C)c(C(F)(F)F)c3)n2)cc1)C(=O)O [Example 54]", "Target Or Test System": "S1P3 (Homo sapiens)", "Ki": "6.69e-06 M"}
{"Molecule": "CCN(Cc1cccc(-c2noc(-c3ccc(-c4ccccc4C)c(C(F)(F)F)c3)n2)c1)[C@H](CO)C(=O)O [Example 87]", "Target Or Test System": "S1P3 (Homo sapiens)", "Ki": "4.68e-07 M"}
{"Molecule": "Cc1ccccc1-c1ccc(-c2nc(-c3cccc(CN[C@H](C)C(=O)O)c3)no2)cc1C(F)(F)F [Example 82]", "Target Or Test System": "S1P3 (Homo sapiens)", "Ki": "1.17e-07 M"}
{"Molecule": "Cc1ccccc1-c1ccc(-c2nc(-c3ccc(CN(C)[C@H](CO)C(=O)O)cc3)no2)cc1C(F)(F)F [Example 72]", "Target Or Test System": "S1P3 (Homo sapiens)", "Ki": "2.66e-06 M"}
{"Molecule": "Cc1ccccc1-c1ccc(-c2nc(-c3ccc(CN[C@H](C)C(=O)O)cc3)no2)cc1C(F)(F)F [Example 68]", "Target Or Test System": "S1P3 (Homo sapiens)", "Ki": "7.57e-06 M"}
{"Molecule": "Cc1ccccc1-c1ccc(-c2nc(-c3ccc(CN(C)[C@H](C(=O)O)C(C)C)c(F)c3)no2)cc1C(F)(F)F [Example 13, hydrochloride salt]", "Target Or Test System": "S1P3 (Homo sapiens)", "Ki": "1.53e-06 M"}
{"Molecule": "Cc1ccccc1-c1ccc(-c2nc(-c3ccc(CNC4(C(=O)O)CCCC4)cc3)no2)cc1C(F)(F)F [Example 59]", "Target Or Test System": "S1P3 (Homo sapiens)", "Ki": "> 2e-05 M"}
{"Molecule": "Cc1ccccc1-c1ccc(-c2nc(-c3cccc(CN(C)[C@@H](C)C(=O)O)c3)no2)cc1C(F)(F)F [Example 81]", "Target Or Test System": "S1P3 (Homo sapiens)", "Ki": "1.72e-07 M"}
{"Molecule": "Cc1ccccc1-c1ccc(-c2nc(-c3cc(F)cc(CNC(C)(C)C(=O)O)c3)no2)cc1C(F)(F)F [Example 46, hydrochloride salt]", "Target Or Test System": "S1P3 (Homo sapiens)", "Ki": "9.55e-08 M"}
{"Molecule": "Cc1ccccc1-c1ccc(-c2nc(-c3ccc([C@@H](C)N(C)CC(=O)O)cc3)no2)cc1C(F)(F)F [Example 36, hydrochloride salt]", "Target Or Test System": "S1P3 (Homo sapiens)", "Ki": "7.93e-07 M"}
{"Molecule": "COCc1cc(-c2nc(-c3ccc(CN(C)C4(C(=O)O)CCCC4)cc3)no2)ccc1-c1ccccc1C [Example 53]", "Target Or Test System": "S1P3 (Homo sapiens)", "Ki": "3.64e-06 M"}
{"Molecule": "Cc1ccccc1-c1ccc(-c2nc(-c3ccc([C@@H](C)NCC(=O)O)cc3)no2)cc1C(F)(F)F [Example 22, hydrochloride salt]", "Target Or Test System": "S1P3 (Homo sapiens)", "Ki": "4.7e-07 M"}
{"Molecule": "Cc1ccccc1-c1ccc(-c2nc(-c3ccc(CNC(C(=O)O)C(C)O)cc3)no2)cc1C(F)(F)F (stereo not drawn) [Example 64]", "Target Or Test System": "S1P3 (Homo sapiens)", "Ki": "1.99e-06 M"}
{"Molecule": "Cc1ccccc1-c1ccc(-c2nc(-c3ccc(CN(C)C4(C(=O)O)CCCC4)cc3)no2)cc1C(F)(F)F [Example 73]", "Target Or Test System": "S1P3 (Homo sapiens)", "Ki": "5.42e-06 M"}
{"Molecule": "Cc1ccccc1-c1ccc(-c2nc(-c3cccc(CCN[C@H](C)C(=O)O)c3)no2)cc1C(F)(F)F [Example 95]", "Target Or Test System": "S1P3 (Homo sapiens)", "Ki": "1.12e-07 M"}
{"Molecule": "Cc1ccccc1-c1ccc(-c2nc(-c3cccc(CNC4(C(=O)O)CCC4)c3)no2)cc1C(F)(F)F [Example 80]", "Target Or Test System": "S1P3 (Homo sapiens)", "Ki": "3.51e-08 M"}
{"Molecule": "Cc1ccccc1-c1ccc(-c2nc(-c3ccc(CCN[C@H](C(=O)O)C(C)C)cc3)no2)cc1C(F)(F)F [Example 91]", "Target Or Test System": "S1P3 (Homo sapiens)", "Ki": "7.36e-06 M"}
{"Molecule": "Cc1ccccc1-c1ccc(-c2nc(-c3ccc(CN(C)C(C)(C)C(=O)O)cc3)no2)cc1C(F)(F)F [Example 56]", "Target Or Test System": "S1P3 (Homo sapiens)", "Ki": "8.54e-06 M"}
{"Molecule": "Cc1ccccc1-c1ccc(-c2nc(-c3ccc(CN(C)C(C)(C)C(=O)O)c(F)c3)no2)cc1C(F)(F)F [Example 31]", "Target Or Test System": "S1P3 (Homo sapiens)", "Ki": "2.54e-06 M"}
{"Molecule": "Cc1ccccc1-c1ccc(-c2nc(-c3ccc(C(C)N(C)[C@@H](C)C(=O)O)cc3)no2)cc1C(F)(F)F (stereo partly drawn) [Example 39]", "Target Or Test System": "S1P3 (Homo sapiens)", "Ki": "3.18e-06 M"}
{"Molecule": "Cc1ccccc1-c1ccc(-c2nc(-c3ccc(CCN[C@@H](C)C(=O)O)cc3)no2)cc1C(F)(F)F [Example 92]", "Target Or Test System": "S1P3 (Homo sapiens)", "Ki": "1.24e-06 M"}
{"Molecule": "Cc1ccccc1-c1ccc(-c2nc(-c3ccc(CNCC(C)C(=O)O)cc3)no2)cc1C(F)(F)F (stereo not drawn) [Example 63]", "Target Or Test System": "S1P3 (Homo sapiens)", "Ki": "2.02e-07 M"}
{"Molecule": "COCc1cc(-c2nc(-c3ccc([C@@H](C)NCC(=O)O)cc3)no2)ccc1-c1ccccc1C [Example 9, hydrochloride salt]", "Target Or Test System": "S1P3 (Homo sapiens)", "Ki": "4.94e-07 M"}
{"Molecule": "Cc1ccccc1-c1ccc(-c2nc(-c3ccc(CN(C)[C@@H](C)C(=O)O)c(F)c3)no2)cc1C(F)(F)F [Example 50, hydrochloride salt]", "Target Or Test System": "S1P3 (Homo sapiens)", "Ki": "6.61e-07 M"}
